target: Guanine nucleotide-binding protein G(q) subunit alpha (Homo sapiens, UniProt P50148); assay: Antagonist activity at hUII-activated RLucII-tagged Galpha-q (unknown origin) expressed in HEK293 cells co-expressing human UT/GFP10-tagged G-gamma by BRET assay (reference value: 8.26 +/- 0.09); assay type: cell-based
Sequence (P50148 whole entry): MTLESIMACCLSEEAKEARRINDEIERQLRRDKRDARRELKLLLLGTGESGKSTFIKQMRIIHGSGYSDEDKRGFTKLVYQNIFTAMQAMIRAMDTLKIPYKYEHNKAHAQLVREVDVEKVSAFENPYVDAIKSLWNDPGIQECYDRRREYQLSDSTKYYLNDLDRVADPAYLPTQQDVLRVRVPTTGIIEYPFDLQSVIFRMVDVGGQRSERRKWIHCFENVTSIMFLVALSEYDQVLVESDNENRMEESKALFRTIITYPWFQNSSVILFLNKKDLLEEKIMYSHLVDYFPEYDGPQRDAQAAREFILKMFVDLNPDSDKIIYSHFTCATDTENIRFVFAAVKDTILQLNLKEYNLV
pEC50: −log10 of the molar value.

>  <Structure Smiles>
NCCCCN1N=C(/C=C/c2ccc(O)cc2)c2ccc(C(=O)NCC(c3ccccc3)c3ccccc3)cc2N(Cc2ccc(-c3ccccc3)cc2)C1=O

>  <pEC50>
8.16

$$$$
>  <Structure Smiles>
NCCCCN1N=C(/C=C/c2ccc(O)cc2)c2ccc(C(=O)NCc3ccccc3)cc2N(Cc2ccc(-c3ccccc3)cc2)C1=O

>  <pEC50>
8.15

$$$$
>  <Structure Smiles>
NCCCCN1N=C(CCc2ccc(O)cc2)c2ccc(C(=O)NCCOc3ccccc3)cc2N(Cc2ccc(-c3ccccc3)cc2)C1=O

>  <pEC50>
8.16

$$$$
